Assay: DRD fibroblast viability loss – cell-based, non-viral oncogenic, luminescence, dose response (AID 1934)
Assay type: functional
Conditions: Homo sapiens
Active and inactive are the calls of the source. No stated cut-off is given here; in the data, actives have a measured EC50 and inactives only a lower limit.

# compound, EC50
records = [
    ("O=c1c2ccccc2cnn1-c1nc2ccccc2[nH]1", "5.22 µM (active)"),
    ("COc1ccc(C)c2sc(N(CCCN(C)C)C(=O)c3ccc(S(=O)(=O)N4CCc5ccccc5C4)cc3)nc12", "4.25 µM (active)"),
    ("COc1cc2c(cc1OC)C(c1ccccc1)N(C(=O)CCl)CC2 (stereo unspecified)", "8.09 µM (active)"),
    ("COc1cc(/C=C2\\CC(C(C)(C)C)C/C(=C\\c3cc(OC)c(OC)c(OC)c3)C2=O)cc(OC)c1OC (stereo unspecified)", "4.23 µM (active)"),
    ("S=C(N/N=C/c1ccc2ncccc2c1)Nc1ccccc1", "14.3 µM (active)"),
    ("COc1cccc(/C=N/Nc2ncccc2[N+](=O)[O-])c1OC", "13.5 µM (active)"),
]

Ref: ChEMBL document CHEMBL1201862
